These measurements were taken from patent US20230331820A1.

Target: gEgI WT: HSV2 gEgI heterodimer comprising gE and gI wildtype ectodomains (HSV2, UniProt P89475 21-416; P06764 21-256)
Assay: SPR binning; gEgI captured by mAb 10
For each record, write down the corresponding RU.
Could you kindly put the unit after your number?

IN: Give RU for the following binder: mAb clone 20 (antibody, V domains shown) VH: QVQLQQSGAELVRPGTSVKVSCKASGYAFTNYLIEWVKQRPGQGLEWIGVINPGSGGTNYNEKFKGKATLTADKSSSTAYMQLSSLTSDDSAVYFCARSHYGNYYAMDYWGQGTSVTVSS VL: NIVLTQSPASLAVSLGQRATISCRASESVDSYGNSFMHWYQQKPGQPPKLLIYLASNLESGVPARFSGSGSRTDFTLTIDPVEADDAATYYCQQNNEDPWTFGGGTKLEIK
OUT: 32.8 RU

IN: Give RU for the following binder: mAb clone 17 (antibody, V domains shown) VH: QVQLKESGPGLVAPSQSLSITCTVSGFSLTSYGVHWVRQPPGKGLEWLGVIWAGGSSNYNSALMSRLSISKDNSKSQVFLKMNSLQTDDTAMYYCARDGYGYVYYAMDYWGQGTSVTVSS VL: DIVMTQAAPSVPVTPGESVSISCRSSKSLLHSNGNTYLYWFLQRPGQSPQLLIYRMSNLASGVPDRFSGSGSGTAFTLRISRVEAEDVGVYYCMQHLEYPFTFGAGTKLELK
OUT: 4.6 RU

IN: Give RU for the following binder: mAb clone 24 (antibody, V domains shown) VH: EVQLQQSGPELVKPGASVKMSCKASGYTFTDYYMKWVKQSHGKSLEWIGDINPNNGDTFYNQKFKGKATLTVDKSSSTAYMQLNSLTSEDSAVYYCARRGFYYYGSRGGIMDYWGQGTSVTVSS VL: NIMMTQSPSSLAVSAGEKVTMSCKSSQSVLYSSNQKNYLAWYQQKPGQSPKLLIYWASTRESGVPDRFTGSGSGTDFTLTISSVQAEDLAVYYCHQYLSSYTFGGGTKLEIK
OUT: 39.1 RU

IN: Give RU for the following binder: mAb clone 15 (antibody, V domains shown) VH: QVQLKESGPGLVAPSQSLSITCTVSGFSLTSYGVSWVRQPPGKGLEWLGVIWGDGSTNYHSALISRLSISKDNSKSQVFLKLNSLQTDDTATYYCAKPDLYYDSPYAMDYWGQGTSVTVSS VL: DIQMTQSPASLSASVGETVTITCRASGNIHNYLAWYQQKQGKSPQLLVYNAKTLADGVPSRFSGSGSGTQYSLKINSLQPEDFGSYYCQHFWSTPWTFGGGTKLEIK
OUT: 13.4 RU

IN: Give RU for the following binder: mAb clone 34 (antibody, V domains shown) VH: EVKLVESGGGLVQPGGSLKLSCATSGFTFSDYYMYWVRQTPEKRLEWVAYISNGGDSTYYPDTVKGRFTISRDNAKNTLYLQMSRLKSEDTAMYYCARSYYGNPFPYWGQGTLVTVSA VL: ENVLTQSPAIMSASPGEKVTMTCRASSSVSSSYLHWYQQKSGASPKLWIYSTSNLASGVPARFSGSGSGTSYSLTISSVEAEDAATYYCQQYSGYPLTFGAGTKLELK
OUT: 1.3 RU
